Sourced from patent US20260070917A1

# Study system: CDK9 (Homo sapiens)
# Construct: host or cells: HEK293-CDK9-Hibit
# Experiment description: HiBit Assay Protocol for CDK9 (HIBIT protein quantification, degradation)
# Assay type: cell-based
# Condition label: 6 h, HEK293-CDK9-Hibit cells, compound treatment for 6 hours; read-out: CDK9 HIBIT Protein Quantification Maximum
Recorded Dmax, one value per entry.

Some compounds with recorded Dmax:
CC1CCCC1N1C(=O)C2(CC2)c2cnc(NC3CCN(S(=O)(=O)N4CC5C4CCN5C(=O)CCCc4ccc5c(c4)n(C)c(=O)n5C4CCC(=O)NC4=O)CC3)nc21 (stereo not shown) = 8%
CC1CCCC1N1C(=O)C2(CC2)c2cnc(NC3CCN(S(=O)(=O)N4CC(N(C)C(=O)CCCCCCCCCc5cccc6c5n(C)c(=O)n6C5CCC(=O)NC5=O)C4)CC3)nc21 (stereo not shown) = 66%
Cn1nc(N2CCC(=O)NC2=O)c2ccc(C3CCN(Cc4cccc(S(=O)(=O)N5CCC(Nc6ncc7c(n6)N([C@@H]6CCC[C@@H](O)C6)C(=O)C76CC6)CC5)c4)CC3(F)F)cc21 (stereo partly shown) = 14%

The recorded Dmax for entry CC1CCCC1N1C(=O)C2(CC2)c2cnc(NC3CCN(S(=O)(=O)N4CCN(C(=O)CCCCCCCc5cccc6c5n(C)c(=O)n6C5CCC(=O)NC5=O)CC4)CC3)nc21 (stereo not shown) equals 44%

Looking up Cn1c(=O)n(C2CCC(=O)NC2=O)c2cccc(C3CCN(CC4CCN(S(=O)(=O)c5ccc(Nc6ncc7c(n6)N([C@@H]6CCC[C@@H](O)C6)C(=O)C76CC6)cc5)CC4)CC3)c21 (stereo partly shown) , I see its Dmax listed as 34%

Lookup result for CC1CCCC1N1C(=O)C2(CC2)c2cnc(NC3CCN(S(=O)(=O)N4CCC5(CCN(C(=O)CCCCCCCCCc6ccc7c(c6)n(C)c(=O)n7C6CCC(=O)NC6=O)C5)C4)CC3)nc21 (stereo not shown) ; measured Dmax: 35%

====

# Study system: CDK9 (Homo sapiens, UniProt P50750)
# Construct: host or cells: HEK293-CDK9-Hibit
# Sequence (P50750 whole entry): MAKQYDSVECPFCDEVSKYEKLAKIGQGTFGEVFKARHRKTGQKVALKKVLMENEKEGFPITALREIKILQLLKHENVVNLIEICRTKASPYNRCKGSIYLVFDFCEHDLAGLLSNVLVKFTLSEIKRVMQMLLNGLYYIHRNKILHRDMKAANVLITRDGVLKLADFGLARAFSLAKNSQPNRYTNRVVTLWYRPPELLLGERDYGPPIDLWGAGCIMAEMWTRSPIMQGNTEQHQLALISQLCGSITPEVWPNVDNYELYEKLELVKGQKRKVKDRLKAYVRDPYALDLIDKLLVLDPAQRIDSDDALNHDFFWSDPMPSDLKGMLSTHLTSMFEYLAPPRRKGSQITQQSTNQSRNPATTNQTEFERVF
# Experiment description: HiBit Assay Protocol for CDK9 (HIBIT protein quantification, degradation)
# Type: cell-based
# Condition label: 6 h, HEK293-CDK9-Hibit cells, compound treatment for 6 hours; read-out: CDK9 HIBIT Protein Quantification Maximum
Catalogue of Dmax readings, one per entry.
Give the value, in units of %, as a plain number.

Some solved cases for reference:
CC1CCCC1N1C(=O)C2(CC2)c2cnc(NC3CCN(S(=O)(=O)N4CC5CN(C(=O)CCCCc6ccc7c(c6)n(C)c(=O)n7C6CCC(=O)NC6=O)CC54)CC3)nc21 (stereo not drawn) [Compound 111] = 25
CC1CCCC1N1C(=O)C2(CC2)c2cnc(NC3CCN(S(=O)(=O)N4CC5(CCCN(C(=O)CCCCCc6cccc7c6n(C)c(=O)n7C6CCC(=O)NC6=O)C5)C4)CC3)nc21 (stereo not drawn) [Compound 39] = 6

Proceed to the following item.
For record O=C1CCC(N2Cc3cc(N4CCN(Cc5cccc(S(=O)(=O)N6CCC(Nc7ncc8c(n7)N([C@@H]7CCC[C@@H](O)C7)C(=O)C87CC7)CC6)c5)CC4)c(F)cc3C2=O)C(=O)N1 (stereo partly drawn) [Compound 121] the listed Dmax is 12
